Listed here: items and their measured log10 of TGI.
Test system: SK-MEL-5 melanoma
Assay: NCI tumour cell line growth inhibition, 48 h
The base-10 logarithm of TGI, taken with TGI in µM, is what appears here.

Example entries begin here.
{"compound": "Cc1ccc(S(=O)(=O)N2C[C@@H]3CC[C@]4(CO[Si](C)(C)C(C)(C)C)N[C@@H](c5ccccc5)[C@H]2[C@H]34)cc1", "tested-on": "SK-MEL-5 melanoma", "property-measured": "log10 of TGI", "reading": 1.49}
{"compound": "COc1ccc(-c2c(C)c(C(=O)O)nc(-c3ccc4c(O)c(OC)c5c(c4n3)=NC(C)(C)N=5)c2N)c(O)c1OC", "tested-on": "SK-MEL-5 melanoma", "property-measured": "log10 of TGI", "reading": 1.40}
{"compound": "COC(=O)c1cc(-c2ccccc2)[nH]c1N/N=C/c1c(Cl)cccc1Cl", "tested-on": "SK-MEL-5 melanoma", "property-measured": "log10 of TGI", "reading": 0.28}
{"compound": "COc1ccc2c(c1)[n+](=O)c(C(=O)c1cccs1)c(C(F)(F)F)n2[O-]", "tested-on": "SK-MEL-5 melanoma", "property-measured": "log10 of TGI", "reading": 0.77}
{"compound": "COc1ccc(/C=C(/c2ccccc2)[N+](=O)[O-])c(OC)c1", "tested-on": "SK-MEL-5 melanoma", "property-measured": "log10 of TGI", "reading": 0.51}

Prompt: Give a short answer stating reported log10 of TGI for CCCCc1ccc(Nc2ncc3ncn(COCCO)c3n2)cc1 .
Response: 1.70

Prompt: Give a short answer stating reported log10 of TGI for O=C(NCCN1CCOCC1)OCc1nc2nc(Cl)nc(N3CCOCC3)c2[nH]1 .
Response: 0.67

Prompt: Give a short answer stating reported log10 of TGI for CCOC(=O)/C(C(N)=O)=C(\O)C(=O)/C(Br)=C(\O)c1ccccc1 .
Response: 1.48

Prompt: Give a short answer stating reported log10 of TGI for CCC[CH2][Sn]([CH2]CCC)([O]C(=O)c1cc(OC)c(OC)cc1OC)[O][Sn]([CH2]CCC)([CH2]CCC)[O]C(=O)c1cc(OC)c(OC)cc1OC .
Response: 0.33

Prompt: Give a short answer stating reported log10 of TGI for NNC(=O)Nc1nc2ccc(NN)cc2[nH]1 .
Response: 1.72

Prompt: Give a short answer stating reported log10 of TGI for CCOC(=O)N1C/C(=C\c2ccccc2)C(=O)/C(=C/c2ccccc2)C1 .
Response: 0.79

Prompt: Give a short answer stating reported log10 of TGI for C=C(C(=O)O[C@H]1C/C(C)=C/CC/C(CO)=C/[C@H]2C(=O)OC(=C)[C@H]12)C(O)CO (stereo partly specified) .
Response: 1.46

Prompt: Give a short answer stating reported log10 of TGI for C=C1CC(CC)(CCN2C(=O)c3ccccc3C2=O)OC1=O (stereo unspecified) .
Response: 1.42

Prompt: Give a short answer stating reported log10 of TGI for Cc1c(C(=O)c2ccc(N)c3ccccc23)c2ccccc2n1CCN1CCOCC1 .
Response: 1.53

Prompt: Give a short answer stating reported log10 of TGI for CC(=O)n1cc(C2CC23N=C(c2ccccc2)OC3=O)c2ccccc21 (stereo unspecified) .
Response: 1.60
